target: MERS RBD-hFc (MERS-CoV (isolate EMC/2012)); test: SPR Biacore, captured mAb, 25 C
pKd values, listed per item
// pKd here means minus log10 of the molar concentration (mol/L)

# BINDER, pKd
rows = [
    ("H2aM15287N (antibody, V domains shown) VH: QLQLQESGPGLVKPSETLSLTCTVSGGSISSGNYYWGWIRQPPGKGLEWFGTIYYSGSTYYNPSLKSRVTISVDTSKNQFSLKLSSVTAADTAVYYCARRAAVGHFDYWGQGTLVTVSS VL: DIQMTQSPSTLSASVGDRVTITCRASQSISTWLAWYQQKPGKAPKLLIYEASSLESGVPSRFSGSGFGTEFTLTISRLQPDDFATYFCQQYNTYWTFGQGTKVEIK", 8.16),
]

# pKd lookup, item H2aM15279N (antibody, V domains shown) VH: EVQLLESGGGLVQTGGSLRLSCAASGFTFSNYAMSWVRQAPGKGLEWVSAISDRGGSIYYADSVKGRFTISRDNSKNTKYLQMDSLRAEDTAVYYCAQDRGFGVFDYWGQGTLVTVSS VL: DIQMTQSPSSLSASVGDRVTITCQASQDIGNYLNWFQQRPGKAPNLLIYGASNLETGVPSRFSGGGSGTDFTFTISSLQPEDIATYFCQQYDNLPFTFGPGTKVEIK
9.99

Bench note: what pKd did H2aM15278N (antibody, V domains shown) VH: QVQLVQSGAEVKKPGASVKVSCKASGYTFTSHGISWVRQAPGQGFEWMGWIGTYNSNTDYAQNFQGRVTMTTDTSTSTAYMELRNLRSDDTAVYYCARERGPYYGMDVWGQGTTVTVSS VL: EIVLAQSPGTLSLSPGERATLSCRASQSVNSNYLAWYQQKPGQAPRLLIYGASSRATGIPDRFSGSGSGTDFTLTISRLEPEDFAVYYCQQYGNSLTFGPGTKVDFK show?
9.30

What does the record list as pKd for H1M15289N (antibody, V domains shown) VH: QVQLQESGPGLVKPSETLSLTCTVSGGSISSYYWSWIRQPPGKGLEWIGYIYYSGSANYNPSLKSRVTISVDTSKNQFSLKLSSVTAADTAVYYCVRDRDLLLDHWGQGTLVTVSS VL: EIVMTQSPATLSVSPGKRATLSCRASQSVSSNLAWYQQKPGQAPRLLIYGASTRTTGFPARFSGSGSGTDFTLTISSLQSEDFAVYYCQQYNNWPYTFGQGTMLEIK ?
9.68

// lookup pKd for H2aM15270N (antibody, V domains shown) VH: EVQLLESGGGLEQPGGSLRLSCAASGFTFSSYAMIWVRQAPGKGLEWVSTISGSGVNTYYADSVKGRFTISRDNSKNTLHLQMNSLRAEDTAVYHCAKEGLDCANGVCYNYYGMDVWGQGTTVTVSS VL: DIQMTQSPSSLSASVGDRVTITCRASQSINSFLNWYHQKPGKAPKFLIYSASNLQSGVPSRFSGSGSGTDFTLTISSLQPEDFSTYYCQQSYSIPLTFGGGTKVEIK
9.11

What pKd value was documented for this binder, H1H15188P (antibody, V domains shown) VH: QVQLVQSGAEVKKPGSSVKVSCKASGGSFSVYAISWVRQAPGQGLEWMGGIIPIFGTANYAQKFQDRFTITTDESTSTAYMELSSLRSEDTAMYYCAREGDIVVLPAGKGGMDVWGQGTTVTVSS VL: DIVMTQSPLSLPVTPGEPASISCRSSQSLLHGNGYNYLDWYLQKPGQSPQLLIYLVSHRASGVPDRFSGSGSGTDFTLKISRVEAEDVGVYYCMQALQSPWTFGQGTKVEIK ?
10.08
